# Tested on: MS2 coat protein
# Method Notes: apparent Kd, MS2 coat protein; higher = weaker binding; RNA-MaP array; FMN 200 µM where present
# Experimental Context: designed as: OFF switch for flavin mononucleotide; no ligand
Give rule met when the value for apparent Kd is at least 20 nM. Give rule not met when it is less.

Confirm if apparent Kd reported for the sequence UUAAUUAACAAGAAGGCUUACAUGAGGAUCACCCAUGUUGUACAUGGAUAAAGAGGAUAUUGCUAAUAAUUAUUUUUCUUAAUU is 20 nM or above.
rule met

Form field: apparent Kd at least 20 nM? Entry: GGGACUUACGAGAAGGGCUACAUGAGGAUCACCCAUGUAAAUCUUCGGGUAGCAGGAUAUCGGCGGCUACAGGAGGGCCAAGUC
rule not met

Can UGCUGUGUCAGAGGAUAUACGUCAAUAAUCCAUUGCAAAUAGCGAUGGACAUGAGGAUCACCCAUGUAGAAGGCUGUCACAGCA be said to have apparent Kd at or above 20 nM?
rule met

Textbook exercise: given the entry AAAAGGUGAGGAUAUUCGGCGCCGGGAAGGUUGGUGCGGAUGAAGAAGGCACAUGAGGAUCACCCAUGUAAUAA , state whether its apparent Kd is greater than or equal to 20 nM.
rule met

Check the entry CUUUUGUGAGGAUAUCAGGUGUGCUAGCGUACUGGUACAUCUGAGAAGGCACAUGAGGAUCACCCAUGUUCCUC : does apparent Kd equal or exceed 20 nM?
rule met

Does apparent Kd meet or surpass 20 nM for GUCAGCUCGUGAGGAUAUACAUGUGCUGGAGACAGCAUUAUAUUUUUCACAUGAGGAUCACCCAUGUAGAAGGCACGAGCUGAU ?
rule not met

Check if apparent Kd >= 20 nM (inclusive). Item: AAAUUUAACGAAGGAUAUGCUUACAUGAGGAUCACCCAUGUGUGCCUUGUGAUGCUGAUUAGGUUGCAGAAGGUCGUAUACAUA
rule met

hey, is apparent Kd for this one >= 20 nM? GGUUGUCAUAGUCAUCCUUUCCGUACAUGAGGAUCACCCAUGUAGGAUAUGCUACUCACGGUGUGGCAGAAGGGCGUGUGUCUU
rule not met

Does the sequence UUGUUCUGAGGAUAUACAUGAGGAUCACCCAUGUGUUUCUGCUUGGUGUCUUGCGUUUGUAGAAGGCUGUUCUC have recorded apparent Kd that is 20 nM or more?
rule met

Does the reported apparent Kd for GUUUACGUAGAAGGAUAUACAUUUGACAUCCUGAUGCACGCAAUACUCACAUGAGGAUCACCCAUGUAGAAGGUCUGCGAAAGA fall at or above the 20 nM mark?
rule not met

Decide: apparent Kd of ACAAUAGUAUCACAUGUAUUACAUGAGGAUCACCCAUGUAACUAGGAUAUGUUUUAAAAUUUACAACAGAAGGAGUUAUUAUGU >= 20 nM?
rule not met

# check: apparent Kd of CGGCACCAAGGAUAUACAUGAGGAUCACCCAUGUUUUUUGGGCCCUAAAGAUCUACGUGUAGAAGGUGGGUCGA is greater than or equal to 20 nM
rule met

Is apparent Kd at least 20 nM? Consider AAGUAGAUCCGAGGAUAUACAAUCUGGAAUCGGUACAUGAGGAUCACCCAUGUAGAAGGCGGAUCUACAGGUACUAAAGUACCA
rule not met

Check the entry CUUUUGUGAGGAUAUUAGUAGUAAAUAAAUAAAUUUACUACUGAGAAGGCACAUGAGGAUCACCCAUGUUCCUC : does apparent Kd equal or exceed 20 nM?
rule met

Tell me whether apparent Kd is at least 20 nM here: UUUAUGUCAGGAUAUACAUGAGGAUCACCCAUGUAUAUCUAAAAAUAUACAUGGGAAUGUAGAAGGGACCUCCU
rule met

Does the reported apparent Kd for UGUUGUUCAGGAUAUGAUGUUUUAUACAUGAGGAUCACCCAUGUGGGUCCUGAUUUGGCGUCAGAAGGGAAUGUUG fall at or above the 20 nM mark?
rule met

Evaluate GGAUGAGAAACUCAUCCAAAUCGAACAUGAGGAUCACCCAUGUAGGAUAUGCUACUCAAAGAGUAGCAGAAGGACAUGUGCUUU : apparent Kd at minimum 20 nM?
rule met

Evaluate UUCUUGCAAGGAUAUGAUUUAAGUAACAUGAGGAUCACCCAUGUUUUUCCGUUGUUAUGUUCAGAAGGUGCGUGAU : apparent Kd at minimum 20 nM?
rule met

Could you tell me if the measured apparent Kd of CACGGUGAUGUAGGAUAUACGCUGGAAUACAGCGUAGAAGGACAUGAGGAUCACCCAUGUAAAGUGUCUCCGAAUAACACCGUG reaches 20 nM or more?
rule met

hey, is apparent Kd for this one >= 20 nM? GGUUGGCGAGGAUAUACAUGAGGAUCACCCAUGUGGUCCUGUGGCUGGUCUUACCUUUGUAGAAGGCGCGGGUC
rule met

Assess whether reported apparent Kd for GUGUAGAUAGGAUAUGCUGGAAUCUAGCGAAGCUAGGUUCCACAUGAGGAUCACCCAUGUAGAAGGGUCUACAC sits at 20 nM or higher.
rule met

Please check the record UGUGCGUUGAUCUUCGAUCGGUGUACAUGAGGAUCACCCAUGUAGGAUAUUCAAAGACGCAGAUAGGAGAAGGACAUCGGUUUU and state if its apparent Kd is at or above 20 nM.
rule not met

Is the recorded value of apparent Kd equal to or greater than 20 nM for this sequence? AAUUUACAUGAGGAUCACCCAUGUGAGGAUAUAUAUAUAUGCUUGUUAUUGCGUGUGUGUAGAAGGCGCGUGAU
rule met

Check this sequence for apparent Kd at or above 20 nM: CAGCGAAAGCUGAAUCUGUAGAGAGAGGAUAUACAAGAAUAAGUCCAUACAUGAGGAUCACCCAUGUAGAAGGCUCUCUACAGU
rule not met

Exam item: decide whether the reported apparent Kd for CAGCGAAAGUAGAAGGCAGUACUGAUACAGUACUGAGGAUAUACAUGAGGAUCACCCAUGUACUUCAGCUGGAAAUAAAUAAAU is at least 20 nM.
rule not met

apparent Kd >= 20 nM for UUGUUGUGAGGAUAUCCAAUAUAUGACAUGAGGAUCACCCAUGUUUCCACUCGUACCUCCGGAGAAGGCACUUAUU ?
rule met

Record AUUUCGUCAGGAUAUCCUAGUAAUUGUUUCAUAUUUACAAAGGAGAAGGGACAUGAGGAUCACCCAUGUUGGUC ; criterion: apparent Kd no lower than 20 nM. Met?
rule met

Is the recorded value of apparent Kd equal to or greater than 20 nM for this sequence? GUGCGCGGCUAGGAUAUUGUGGGUUUUUGUCUGCGAGAAGGUGCCACAUGAGGAUCACCCAUGUGGUGUUGCUC
rule met
